From: patent US20230079819A1

Assignment: determine reported IC50 for the given compounds.
tested.on: BRG-1 (Homo sapiens, UniProt P51532)
Construct: made in house; host or cells: High Five insect cells
Sequence (P51532 whole entry): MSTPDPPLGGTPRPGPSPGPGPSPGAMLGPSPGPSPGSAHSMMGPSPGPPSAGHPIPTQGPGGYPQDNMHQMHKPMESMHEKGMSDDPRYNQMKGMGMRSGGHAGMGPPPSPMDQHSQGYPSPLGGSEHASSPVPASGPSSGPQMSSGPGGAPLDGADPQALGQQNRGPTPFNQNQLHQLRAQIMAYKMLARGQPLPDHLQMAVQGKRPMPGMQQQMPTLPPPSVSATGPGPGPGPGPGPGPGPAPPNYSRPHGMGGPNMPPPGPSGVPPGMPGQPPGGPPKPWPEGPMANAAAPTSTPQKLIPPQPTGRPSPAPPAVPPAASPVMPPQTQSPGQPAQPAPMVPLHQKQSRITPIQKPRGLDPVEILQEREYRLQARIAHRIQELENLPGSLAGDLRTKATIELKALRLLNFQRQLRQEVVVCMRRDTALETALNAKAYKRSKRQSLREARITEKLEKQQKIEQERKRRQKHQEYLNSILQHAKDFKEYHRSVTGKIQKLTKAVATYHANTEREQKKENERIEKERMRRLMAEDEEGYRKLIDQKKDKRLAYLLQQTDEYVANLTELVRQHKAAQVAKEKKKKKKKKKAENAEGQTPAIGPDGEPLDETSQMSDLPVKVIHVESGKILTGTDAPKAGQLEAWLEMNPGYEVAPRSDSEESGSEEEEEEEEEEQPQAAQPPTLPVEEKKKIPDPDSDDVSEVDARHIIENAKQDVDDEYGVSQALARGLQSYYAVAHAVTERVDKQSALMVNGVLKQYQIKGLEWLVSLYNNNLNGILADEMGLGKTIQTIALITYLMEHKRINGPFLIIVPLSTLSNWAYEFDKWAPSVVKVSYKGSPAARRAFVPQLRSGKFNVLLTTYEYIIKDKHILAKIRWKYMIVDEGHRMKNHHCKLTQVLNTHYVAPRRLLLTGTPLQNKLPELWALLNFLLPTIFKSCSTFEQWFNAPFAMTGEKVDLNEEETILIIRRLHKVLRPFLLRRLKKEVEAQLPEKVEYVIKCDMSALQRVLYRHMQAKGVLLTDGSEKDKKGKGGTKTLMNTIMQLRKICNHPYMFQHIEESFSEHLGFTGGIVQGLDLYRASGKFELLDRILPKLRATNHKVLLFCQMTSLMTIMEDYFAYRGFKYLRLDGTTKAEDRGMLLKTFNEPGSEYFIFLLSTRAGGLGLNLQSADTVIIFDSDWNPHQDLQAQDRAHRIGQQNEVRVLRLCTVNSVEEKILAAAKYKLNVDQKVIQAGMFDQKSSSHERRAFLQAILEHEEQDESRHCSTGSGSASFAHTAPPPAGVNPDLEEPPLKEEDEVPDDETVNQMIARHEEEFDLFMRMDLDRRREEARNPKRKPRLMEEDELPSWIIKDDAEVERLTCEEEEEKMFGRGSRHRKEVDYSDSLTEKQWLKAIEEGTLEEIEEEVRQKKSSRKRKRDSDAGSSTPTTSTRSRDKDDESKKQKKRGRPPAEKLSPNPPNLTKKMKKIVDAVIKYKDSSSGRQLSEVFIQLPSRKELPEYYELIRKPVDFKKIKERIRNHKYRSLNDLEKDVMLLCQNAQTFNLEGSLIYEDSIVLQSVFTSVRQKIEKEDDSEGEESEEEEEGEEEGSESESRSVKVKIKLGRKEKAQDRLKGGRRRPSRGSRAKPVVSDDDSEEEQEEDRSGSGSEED
test.description: ATPase catalytic activity of BRG-1, ADP-Glo in vitro biochemical assay
condition.parameters: ATPase catalytic activity, 30 nM BRG-1, 400 μM ATP, read-out: BRG1 IP50

N#CC1(n2ccc(C(=O)NCC(=O)Nc3nc(-c4cccc(N5CCC5)c4)cs3)c2)CC1 [Compound 476] : > 10 nM

Look at each compound and report its IC50.
1. COc1cc(-c2csc(NC(=O)CNC(=O)c3ccn(S(C)(=O)=O)c3)n2)ccc1F [Compound 718]
2. COc1cccc(-c2csc(NC(=O)CNC(=O)c3ccn(S(C)(=O)=O)c3)n2)c1F [Compound 711]
3. CS(=O)(=O)n1ccc(C(=O)NCC(=O)Nc2nc(-c3ccnc(OC4CC4)c3)cs2)c1 [Compound 489]
4. COC[C@H](NC(=O)c1ccn(C2(C)COC2)c1)C(=O)Nc1nc(-c2cccc(-c3ccn(C)n3)c2)cs1 [Compound 572]
5. COC[C@H](NC(=O)c1ccn(S(C)(=O)=O)c1)C(=O)Nc1nc(-c2cc(Cl)cc(C#N)c2)cs1 [Compound 721]
6. COC[C@H](NC(=O)c1ccn(S(C)(=O)=O)c1)C(=O)Nc1nc(-c2cc(Cl)c3c(c2)OCO3)cs1 [Compound 617]

Return:
1. > 10 nM
2. > 10 nM
3. > 10 nM
4. > 10 nM
5. > 10 nM
6. > 100 nM

Could you report IC50 for every entry in the following list?
1. C[C@@H]1CN(c2cccc(-c3csc(NC(=O)CNC(=O)c4ccn([C@@]5(C)CC5(F)F)c4)n3)n2)C[C@H](C)O1 [Compound 621]
2. COC[C@H](NC(=O)c1ccn(C(C)(C)C)c1)C(=O)Nc1nc(-c2ccc3ccn(C(F)F)c(=O)c3c2)cs1 [Compound 583]
3. CC(C)(C)n1ccc(C(=O)NCC(=O)Nc2nc(-c3cccc(N4CCC5(CCCCO5)C4)n3)cs2)c1 (centres unmarked) [Compound 631]
4. CS(=O)(=O)n1ccc(C(=O)NCC(=O)Nc2nc(-c3cccc(N4CC[C@H](C(F)F)C4)c3)cs2)c1 [Compound 585]
5. C[C@@H]1CN(c2cccc(-c3csc(NC(=O)[C@H](C)NC(=O)c4ccn(C5(C#N)CC5)c4)n3)n2)C[C@H](C)O1 [Compound 560]

Return:
1. > 100 nM
2. > 10 nM
3. > 10 nM
4. > 10 nM
5. > 10 nM

Provide IC50 for all items below, preserving their order.
1. COC[C@H](NC(=O)c1ccn(S(C)(=O)=O)c1)C(=O)Nc1nc(-c2cc(F)c3c(c2)N(C)CC3)cs1 [Compound 713]
2. Cc1nnc(C2CCN(c3cccc(-c4csc(NC(=O)CNC(=O)c5ccn(C(C)(C)C)c5)n4)n3)CC2)o1 [Compound 630]

Return:
["< 10 nM", "> 10 nM"]

====

tested.on: BRG-1 (Homo sapiens)
Construct: made in house; host or cells: High Five insect cells
test.description: ATPase catalytic activity of BRG-1, ADP-Glo in vitro biochemical assay
condition.parameters: ATPase catalytic activity, 30 nM BRG-1, 400 μM ATP, read-out: BRG1 IP50 (μM)*
quantity.measured: IC50

Below, 4 compounds whose answers are already recorded.
CN1CCc2ccc(-c3csc(NC(=O)CNC(=O)c4ccn(S(C)(=O)=O)c4)n3)cc21 : > 0.01 µM
CS(=O)(=O)n1ccc(C(=O)NCC(=O)Nc2nc(-c3cccc(N4CC[C@@H](O)C4)c3)cs2)c1 : < 0.01 µM
CS(=O)(=O)n1ccc(C(=O)NCC(=O)Nc2nc(-c3cccc(C4CCN(CC(F)(F)F)CC4)c3)cs2)c1 : > 0.1 µM
C[C@@H]1CN(c2cccc(-c3csc(NC(=O)CNC(=O)c4ccn(C5COC5)c4)n3)n2)C[C@H](C)O1 : > 0.1 µM

Go through the items and report each one's IC50.
1. C[C@@H]1CN(c2cccc(-c3csc(NC(=O)CNC(=O)c4ccn(C5COC5)c4)n3)c2)C[C@H](C)O1
2. CS(=O)(=O)n1ccc(C(=O)NCC(=O)Nc2nc(-c3cccc(OCC4COC4)c3)cs2)c1
3. CS(=O)(=O)n1ccc(C(=O)NCC(=O)Nc2nc(-c3cccc(OC4CCCOC4)c3)cs2)c1 (stereo not shown)

Return:
1. > 0.1 µM
2. > 0.01 µM
3. > 0.01 µM

====

tested.on: BRG-1 (Homo sapiens)
Construct: made in house; host or cells: High Five insect cells
test.description: ATPase catalytic activity of BRG-1, ADP-Glo in vitro biochemical assay
condition.parameters: ATPase catalytic activity, 30 nM BRG-1, 400 μM ATP, read-out: BRG1 IP50 (μM)*
Kindly state IC50 for each of the entries shown.

COC[C@H](NC(=O)c1ccn(S(C)(=O)=O)c1)C(=O)Nc1nc(-c2cccc(-c3cccc(C)n3)c2)cs1 : > 0.01 µM
CS(=O)(=O)n1ccc(C(=O)NCC(=O)Nc2nc(-c3cccc(C(F)F)c3)cs2)c1 : > 0.01 µM
CS(=O)(=O)n1ccc(C(=O)NCC(=O)Nc2nc(-c3cc(Cl)cc(OC4CC4)c3)cs2)c1 : > 0.01 µM
CS(=O)(=O)n1ccc(C(=O)NCC(=O)Nc2nc(-c3cccc(N4CC(n5ccnc5)C4)c3)cs2)c1 : > 0.1 µM
CC[C@H]1CN(c2cccc(-c3csc(NC(=O)CNC(=O)c4ccn(S(C)(=O)=O)c4)n3)c2)CCO1 : > 0.01 µM
C[C@@H]1CN(c2cccc(-c3csc(NC(=O)CNC(=O)c4ccn(C5(C)CC5)c4)n3)n2)C[C@H](C)O1 : < 0.01 µM

// next entry
Enquiry: What value of measured IC50 is listed for "C[C@@H]1CN(c2cccc(-c3nc(NC(=O)CNC(=O)c4ccn(S(C)(=O)=O)c4)sc3F)c2)C[C@H](C)O1" ?
Return: > 0.01 µM

====

tested.on: BRM (Homo sapiens, UniProt P51531)
Construct: made in house; host or cells: High Five insect cells
Sequence (P51531 whole entry): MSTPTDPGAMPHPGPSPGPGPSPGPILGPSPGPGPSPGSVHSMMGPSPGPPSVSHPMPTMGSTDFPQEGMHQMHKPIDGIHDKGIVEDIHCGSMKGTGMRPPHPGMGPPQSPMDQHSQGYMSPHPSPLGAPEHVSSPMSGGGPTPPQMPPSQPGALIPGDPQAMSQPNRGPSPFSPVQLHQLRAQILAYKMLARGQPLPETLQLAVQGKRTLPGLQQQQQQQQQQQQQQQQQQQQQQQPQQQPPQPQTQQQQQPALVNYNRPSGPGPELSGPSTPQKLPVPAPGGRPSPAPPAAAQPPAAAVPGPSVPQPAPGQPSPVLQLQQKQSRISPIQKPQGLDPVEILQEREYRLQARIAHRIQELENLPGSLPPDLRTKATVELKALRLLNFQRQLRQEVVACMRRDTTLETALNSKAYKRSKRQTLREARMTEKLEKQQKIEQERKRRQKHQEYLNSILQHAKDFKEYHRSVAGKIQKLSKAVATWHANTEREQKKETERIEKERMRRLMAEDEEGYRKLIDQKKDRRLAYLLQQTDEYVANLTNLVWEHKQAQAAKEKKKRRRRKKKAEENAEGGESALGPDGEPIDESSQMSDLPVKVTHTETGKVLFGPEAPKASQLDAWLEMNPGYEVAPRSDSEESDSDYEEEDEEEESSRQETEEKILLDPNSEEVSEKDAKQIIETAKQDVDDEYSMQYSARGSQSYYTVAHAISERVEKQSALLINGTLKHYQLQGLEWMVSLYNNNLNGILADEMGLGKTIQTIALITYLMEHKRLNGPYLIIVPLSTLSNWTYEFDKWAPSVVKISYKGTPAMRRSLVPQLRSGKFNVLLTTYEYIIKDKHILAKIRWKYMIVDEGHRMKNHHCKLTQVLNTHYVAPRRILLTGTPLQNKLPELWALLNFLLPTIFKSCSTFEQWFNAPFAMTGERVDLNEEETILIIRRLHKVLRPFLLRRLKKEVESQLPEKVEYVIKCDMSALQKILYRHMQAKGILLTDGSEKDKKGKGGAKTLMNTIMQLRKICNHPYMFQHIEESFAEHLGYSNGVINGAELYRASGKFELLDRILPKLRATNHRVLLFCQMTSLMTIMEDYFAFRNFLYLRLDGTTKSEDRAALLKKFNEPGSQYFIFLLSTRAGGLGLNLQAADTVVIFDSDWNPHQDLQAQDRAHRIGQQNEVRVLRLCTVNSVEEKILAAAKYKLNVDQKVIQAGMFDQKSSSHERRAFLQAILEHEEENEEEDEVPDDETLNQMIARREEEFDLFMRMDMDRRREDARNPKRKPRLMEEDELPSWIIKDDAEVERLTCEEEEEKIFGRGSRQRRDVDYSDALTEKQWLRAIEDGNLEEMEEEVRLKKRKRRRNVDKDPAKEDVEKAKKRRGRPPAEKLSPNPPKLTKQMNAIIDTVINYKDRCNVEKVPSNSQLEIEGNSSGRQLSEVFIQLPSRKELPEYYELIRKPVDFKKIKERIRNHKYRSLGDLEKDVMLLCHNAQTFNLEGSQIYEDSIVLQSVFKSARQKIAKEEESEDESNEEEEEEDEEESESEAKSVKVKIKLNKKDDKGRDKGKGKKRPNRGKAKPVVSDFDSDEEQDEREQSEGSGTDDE
test.description: ATPase catalytic activity of BRM, ADP-Glo in vitro biochemical assay
condition.parameters: ATPase catalytic activity, 30 nM BRM, 400 μM ATP, read-out: BRM IP50
For each of the molecules below, state its IC50.

COC[C@H](NC(=O)c1ccn(S(C)(=O)=O)c1)C(=O)Nc1nc(-c2cncc(N3C[C@@H](C)O[C@@H](C)C3)n2)cs1 [Compound 707] : > 10 nM
CS(=O)(=O)n1ccc(C(=O)NCC(=O)Nc2nc(-c3cc(F)c4c(c3)OCO4)cs2)c1 [Compound 616] : < 10 nM
COC[C@H](NC(=O)c1ccn(S(C)(=O)=O)c1)C(=O)Nc1nc(-c2cccc(OC)c2F)cs1 [Compound 710] : > 10 nM
Cc1nc(C2CCCN(c3cccc(-c4csc(NC(=O)CNC(=O)c5ccn(C(C)(C)C)c5)n4)n3)C2)no1 (stereo not shown) [Compound 704] : > 10 nM

Please state IC50 for every molecule in the list that follows.
1. COC[C@H](NC(=O)c1ccn(S(C)(=O)=O)c1)C(=O)Nc1nc(-c2cc(Cl)cc(C#N)c2)cs1 [Compound 721]
2. Cn1ccc2ccc(-c3csc(NC(=O)CNC(=O)c4ccn(C56CC(C5)C6)c4)n3)cc2c1=O [Compound 493]
3. C[C@@H]1CN(c2cccc(-c3csc(NC(=O)[C@H](C)NC(=O)c4ccn(C5(C#N)CC5)c4)n3)n2)C[C@H](C)O1 [Compound 560]

Return:
> 10 nM
> 100 nM
> 10 nM

====

tested.on: BRG-1 (Homo sapiens, UniProt P51532)
Construct: made in house; host or cells: High Five insect cells
test.description: ATPase catalytic activity of BRG-1, ADP-Glo in vitro biochemical assay
condition.parameters: ATPase catalytic activity, 30 nM BRG-1, 400 μM ATP, read-out: BRG1 IP50 (μM)*
quantity.measured: IC50

Please review the following examples before continuing.
CCn1ccc2ccc(-c3csc(NC(=O)[C@H](COC)NC(=O)c4ccn(C(C)(C)C)c4)n3)cc2c1=O : > 0.01 µM
COC(C)(C)Cn1ccc(C(=O)NCC(=O)Nc2nc(-c3cccc(-c4ccn(C)n4)c3)cs2)c1 : > 1 µM
CN1CCCc2ccc(-c3csc(NC(=O)CNC(=O)c4ccn(C(C)(C)C)c4)n3)nc21 : > 0.1 µM
CN(C)CC[C@H](NC(=O)c1ccn(S(C)(=O)=O)c1)C(=O)Nc1nc(-c2cccc(-c3ccncc3)c2)cs1 : > 0.01 µM
CN1Cc2ccc(-c3csc(NC(=O)CNC(=O)c4ccn(S(C)(=O)=O)c4)n3)cc2CC1=O : > 0.01 µM

List reported IC50 for each of these molecules:
1. CN1CCOc2ccc(-c3csc(NC(=O)CNC(=O)c4ccn(C(C)(C)C)c4)n3)cc21
2. CS(=O)(=O)n1ccc(C(=O)NCC(=O)Nc2nc(-c3cccc(N4CCC[C@H](C#N)C4)c3)cs2)c1

Return:
1: > 0.01 µM; 2: > 0.01 µM
